test method notes: Thermodynamic solubility study (37° C., 4 hours)
Assay type: physicochemical
settings: PBS pH = 7.4, 4 hours
Listing: Thermodynamic sol. of selected compounds
Please state the figure in µM; there is no need to write the unit.

CCCN(C)C(=O)N[C@H]1CC[C@H](CCN2CCN(c3cccc(Cl)c3Cl)CC2)CC1 [Ref. Ex. 1, reference compound]    4.9

Name the recorded Thermodynamic sol. for CCCOCN(C)C(=O)N[C@H]1CC[C@H](CCN2CCN(c3cccc(Cl)c3Cl)CC2)CC1 .
30.50

And CCOCN(C)C(=O)N[C@H]1CC[C@H](CCN2CCN(c3cccc(Cl)c3Cl)CC2)CC1 ?
10.9

Entry COCN(C)C(=O)N[C@H]1CC[C@H](CCN2CCN(c3cccc(Cl)c3Cl)CC2)CC1 please
58.93

---

Thermodynamic sol. listing for selected molecules.
test method notes: Thermodynamic solubility study (RT, 24 hours)
Format: physicochemical
settings: PBS pH = 7.4, 24 hours
Only the number, expressed in µM, is required.

// query Thermodynamic sol. value for entry COCN(C)C(=O)N[C@H]1CC[C@H](CCN2CCN(c3cccc(Cl)c3Cl)CC2)CC1
50.93

Next entry: CCCN(C)C(=O)N[C@H]1CC[C@H](CCN2CCN(c3cccc(Cl)c3Cl)CC2)CC1 [Ref. Ex. 1, reference compound]
6.2

And then CCCOCN(C)C(=O)N[C@H]1CC[C@H](CCN2CCN(c3cccc(Cl)c3Cl)CC2)CC1 , what is it?
39.68

Another: CCOCN(C)C(=O)N[C@H]1CC[C@H](CCN2CCN(c3cccc(Cl)c3Cl)CC2)CC1
45.3
